# target of assay: UniProt:P56817
# Sequence (P56817 whole entry): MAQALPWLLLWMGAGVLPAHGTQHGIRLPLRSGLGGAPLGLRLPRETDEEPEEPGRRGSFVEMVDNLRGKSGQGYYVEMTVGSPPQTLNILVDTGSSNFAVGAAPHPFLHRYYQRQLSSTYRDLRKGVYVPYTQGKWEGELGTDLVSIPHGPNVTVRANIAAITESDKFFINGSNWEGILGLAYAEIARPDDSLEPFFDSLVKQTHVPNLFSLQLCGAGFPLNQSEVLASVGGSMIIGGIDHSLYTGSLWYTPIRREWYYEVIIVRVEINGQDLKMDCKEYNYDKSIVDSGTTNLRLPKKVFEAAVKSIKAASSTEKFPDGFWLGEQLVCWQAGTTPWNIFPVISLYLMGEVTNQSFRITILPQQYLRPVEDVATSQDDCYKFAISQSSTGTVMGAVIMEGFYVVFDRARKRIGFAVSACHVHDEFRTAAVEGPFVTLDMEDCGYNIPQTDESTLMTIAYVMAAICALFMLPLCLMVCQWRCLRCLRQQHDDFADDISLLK
# assay summary: Inhibition of BACE1
pIC50: −log10 of the molar value.
In this section we review reported pIC50 values for a set of compounds.
measurement name: pIC50

>>> test_result("CCNC(=O)[C@H](C)NC[C@H](Cc1ccccc1)NC(=O)c1cc(C(=O)N[C@H](C)c2ccc(F)cc2)cc(N(C)S(C)(=O)=O)c1")
7.28
>>> test_result("CC(C)CNC(=O)[C@H](CCO)NC[C@H](Cc1ccccc1)NC(=O)c1cc(C(=O)N[C@H](C)c2ccc(F)cc2)cc(N(C)S(C)(=O)=O)c1")
7.89
>>> test_result("C[C@@H](NC(=O)c1cc(C(=O)N[C@H](CN)Cc2ccccc2)cc(N(C)S(C)(=O)=O)c1)c1ccc(F)cc1")
5.23
>>> test_result("C[C@@H](NC(=O)c1cc(C(=O)N[C@H](CO)Cc2ccccc2)cc(N(C)S(C)(=O)=O)c1)c1ccc(F)cc1")
6.20
>>> test_result("CC(C)CNC(=O)CNC[C@H](Cc1ccccc1)NC(=O)c1cc(C(=O)N[C@H](C)c2ccc(F)cc2)cc(N(C)S(C)(=O)=O)c1")
6.93
>>> test_result("CCC[C@H](NC[C@H](Cc1ccccc1)NC(=O)c1cc(C(=O)N[C@H](C)c2ccc(F)cc2)cc(N(C)S(C)(=O)=O)c1)C(=O)NCC(C)C")
8.40
>>> test_result("CC(C)CNC(=O)[C@H](CCS(C)(=O)=O)NC[C@H](Cc1ccccc1)NC(=O)c1cc(C(=O)N[C@H](C)c2ccc(F)cc2)cc(N(C)S(C)(=O)=O)c1")
7.89
>>> test_result("CC[C@H](NC[C@H](Cc1ccccc1)NC(=O)c1cc(C(=O)N[C@H](C)c2ccc(F)cc2)cc(N(C)S(C)(=O)=O)c1)C(=O)NCC(C)C")
8.15
>>> test_result("C[C@H](NC[C@H](Cc1ccccc1)NC(=O)c1cc(C(=O)N[C@H](C)c2ccc(F)cc2)cc(N(C)S(C)(=O)=O)c1)C(=O)NCc1ccccc1")
6.86
>>> test_result("CC(C)CNC(=O)[C@H](C)NC[C@H](Cc1ccccc1)NC(=O)c1cc(CCC2C[C@@H]2C)cc(N(C)S(C)(=O)=O)c1 (some centres not stated)")
7.70
>>> test_result("C[C@H](NC[C@H](Cc1ccccc1)NC(=O)c1cc(C(=O)N[C@H](C)c2ccc(F)cc2)cc(N(C)S(C)(=O)=O)c1)C(=O)NC1CC1")
7.62
>>> test_result("C[C@H](NC[C@H](Cc1ccccc1)NC(=O)c1cc(C(=O)N[C@H](C)c2ccc(F)cc2)cc(N(C)S(C)(=O)=O)c1)C(=O)N1CCC[C@H]1C(=O)O")
4.76
